Values were extracted from ChEMBL document CHEMBL2177013.

Give measured pEC50 for each item. Keep answers brief.
Tested on: RAW264.7
Assay: Antiinflammatory activity in mouse RAW264.7 cells assessed as inhibition of LPS-induced nitric oxide production incubated for 18 hrs by nitrate/nitrite assay
Assay type: functional, cell-based
Details: RAW264.7, 18 h
In plain terms, pEC50 is the concentration in mol/L turned into minus its base-10 logarithm.

Read the entry COc1cc2c3c(c4cc(OC)c(OC)cc4c2cc1OC)C(O)CN(C(C)C)C3 (stereo not drawn) and write its reported pEC50.
5.69

Please give the documented pEC50 of CCN1CCc2c(c3cc(OC)c(OC)cc3c3cc(OC)c(OC)cc23)C1
5.85

Look up pEC50 of CCN1Cc2c(c3cc(OC)c(OC)cc3c3cc(OC)c(OC)cc23)C(O)C1 (stereo not drawn) and report it.
6.42

Assign pEC50 to the following record: CCN1Cc2c(c3ccc(OC)cc3c3cc(OC)c(OC)cc23)C(O)C1 (stereo not drawn)
7.15

Specify pEC50 for CCCN1Cc2c(c3cc(OC)c(OC)cc3c3cc(OC)c(OC)cc23)C(O)C1 (stereo not drawn) and stop.
5.66

Hello, please tell me recorded pEC50 for this one: COc1cc2c3c(c4cc(OC)c(OC)cc4c2cc1OC)CN1CCC[C@@H]1C3
6.57

Give the measured pEC50 for CCCN1CCc2c(c3cc(OC)c(OC)cc3c3cc(OC)c(OC)cc23)C1
5.86

Provide one value: measured pEC50 of COc1cc2c3c(c4cc(OC)c(OC)cc4c2cc1OC)CN(C(C)C)CC3
6.07

====

Experiment: AUC (0 to infinity) in Sprague-Dawley rat at 1.5 mg/kg, iv by HPLC-MS method
Assay type: ADME, organism-based
Design: time infinity, dose 1.5 mg/kg, route intravenous
Details: plasma
result_type: AUC(0-inf) (ng·h/mL)
Just the number please, in ng·h/mL, no unit attached.

Supply reported AUC(0-inf) belonging to this compound: COc1cc2c(cc1OC)[C@@H]1[C@@H](O)[C@@H]3CCC(=O)N3C[C@@H]1c1cc(OC)c(OC)cc1-2 [TYLOPHOVATINE C]
448

====

Assay: Solubility in DMA
Assay type: physicochemical
result_type: solubility

// below: answered molecules
Read the entry COc1cc2c3c(c4cc(OC)c(OC)cc4c2cc1OC)CN1CCC[C@@H]1C3 and write its reported solubility.
soluble

Input CCN1Cc2c(c3ccc(OC)cc3c3cc(OC)c(OC)cc23)C(O)C1 (stereo unspecified) , output reported solubility.
soluble

Provide solubility value for the following molecule: CCCCN1CCc2c(c3cc(OC)c(OC)cc3c3cc(OC)c(OC)cc23)C1
soluble

Identify measured solubility associated with CCN1CCc2c(c3cc(OC)c(OC)cc3c3cc(OC)c(OC)cc23)C1
soluble

Next:
Annotate the molecule CCCN1CCc2c(c3cc(OC)c(OC)cc3c3cc(OC)c(OC)cc23)C1 with its measured solubility.
soluble

// Input: COc1cc2c3c(c4cc(OC)c(OC)cc4c2cc1OC)CN1CCCCC1C3 (stereo unspecified) . Output its solubility only.
soluble

====

System: A549
Experiment: Growth inhibition of human A549 cells
Format: functional
Consider the following molecules; for each one, report its GI50.
Please give a number only; it is taken to be in nM.

Please supply the value of reported GI50 for the item CCN1CCc2c(c3cc(OC)c(OC)cc3c3c(OC)c(OC)c(OC)cc23)C1
1410

Please list GI50 recorded for the molecule CCCN1CCc2c(c3cc(OC)c(OC)cc3c3cc(OC)ccc23)C1
470

Tell us which GI50 value is on record for CCN1Cc2c(c3ccc(OC)cc3c3cc(OC)c(OC)cc23)C(O)C1 (stereo not drawn)
20

Dear colleague, please send me the reported GI50 for CCCN1CCc2c(c3cc(OC)ccc3c3cc(OC)c(OC)cc23)C1 when you can.
4640

Give GI50 for the following molecule: CCCN1CCc2c(c3cc(OC)c(OC)cc3c3cc(OC)c(OC)cc23)C1
730

Please give the documented GI50 of CCN1Cc2c(c3cc(OC)c(OC)cc3c3cc(OC)c(OC)cc23)C(O)C1 (stereo not drawn)
190

Tell me its GI50 given CCCN1Cc2c(c3cc(OC)c(OC)c(OC)c3c3cc(OC)c(OC)cc23)C(O)C1 (stereo not drawn) as the entry.
820

Indicate the recorded GI50 value for this molecule: CCCCN1Cc2c(c3ccc(OC)cc3c3cc(OC)c(OC)cc23)C(O)C1 (stereo not drawn)
1320

====

Test: Cmax in Sprague-Dawley rat at 3 mg/kg, po by HPLC-MS method
Type: ADME, organism-based
Set-up: dose 3 mg/kg, route oral
Conditions: in vivo
result_type: Cmax (ng/mL)
Report the figure in ng/mL without appending any unit label.

Return Cmax (reported value) for this molecule: CCN1Cc2c(c3ccc(OC)cc3c3cc(OC)c(OC)cc23)C(O)C1 (stereo not drawn)
72.4

# return recorded Cmax for input CCCN1CCc2c(c3cc(OC)c(OC)cc3c3cc(OC)c(OC)cc23)C1
87

Name the recorded Cmax of the molecule listed here: CCN1CCc2c(c3cc(OC)c(OC)cc3c3cc(OC)ccc23)C1
535

====

Tested on: Transmissible gastroenteritis virus
Assay: Antiviral activity against Transmissible gastroenteritis virus infected in ST cells assessed as reduction in caspase-3 activation pre-treated before virus infection measured 16 hrs post virus infection by Western blotting
Format: functional, organism-based
Activity calls are given as the source filed them. The rule behind the calls is not given here.
result_type: Activity

Consider the following illustrative entries.
Answer with reported Activity of CCN1CCc2c(c3cc(OC)c(OC)cc3c3cc(OC)ccc23)C1
Active

For CCN1Cc2c(c3cc(OC)c(OC)cc3c3cc(OC)c(OC)cc23)C(O)C1 (stereo unspecified) , write its Activity.
Active

Using known records, supply Activity for CCN1Cc2c(c3ccc(OC)cc3c3cc(OC)c(OC)cc23)C(O)C1 (stereo unspecified)
Active

Report Activity for COc1cc2c3c(c4cc(OC)c(OC)cc4c2cc1OC)CN1CCC[C@@H]1C3
Active

Name the recorded Activity of the item COc1cc2c3c(c4cc(OC)c(OC)cc4c2cc1OC)CN(C(C)C)CC3 in your answer.
Active

Next, consider the following molecule.
Identify measured Activity associated with CCCN1CCc2c(c3cc(OC)c(OC)cc3c3cc(OC)c(OC)cc23)C1
Active

====

Experiment: Oral bioavailability in Sprague-Dawley rat at 3 mg/kg by HPLC-MS method
Type: ADME, organism-based
Details: in vivo
Kindly return condition met if reported bioavailability is no lower than 60%; return condition not met if it is lower.

Kindly determine if bioavailability recorded for CCN1CCc2c(c3cc(OC)c(OC)cc3c3cc(OC)ccc23)C1 is above or exactly 60%.
condition met

Kindly determine if bioavailability recorded for COc1cc2c3c(c4cc(OC)c(OC)cc4c2cc1OC)CN1CCCCC1C3 (stereo not given) is above or exactly 60%.
condition not met

Decide: is the reported value of bioavailability for CCCN1CCc2c(c3cc(OC)c(OC)cc3c3cc(OC)c(OC)cc23)C1 equal to or greater than 60%?
condition met

Could you please find out whether COc1cc2c3c(c4cc(OC)c(OC)cc4c2cc1OC)CN1CCC[C@@H]1C3 has bioavailability that meets 60% or exceeds it?
condition met

Is reported bioavailability greater than or equal to 60% here: CCN1Cc2c(c3ccc(OC)cc3c3cc(OC)c(OC)cc23)C(O)C1 (stereo not given)
condition met

====

Experiment: Apparent elimination half life in Sprague-Dawley rat at 1.5 mg/kg, iv by HPLC-MS method
Type: ADME, organism-based
Parameters: dose 1.5 mg/kg, route intravenous
Conditions: in vivo, read-out: betat1/2(app) (converted)
result_type: half-life (h)
Answer with a number only, understood to be in h.

Give the reported value of half-life for this record: COc1cc2c(cc1OC)[C@@H]1[C@@H](O)[C@@H]3CCC(=O)N3C[C@@H]1c1cc(OC)c(OC)cc1-2
4.6

====

Provide the recorded half-life for the entries that follow.
Assay: Apparent elimination half life in Sprague-Dawley rat at 3 mg/kg, po by HPLC-MS method
Format: ADME, organism-based
Set-up: dose 3 mg/kg, route oral
Conditions: in vivo, read-out: betat1/2(app) (converted)
Field format: number, assumed h, no unit text.

Report measured half-life; entry is CCN1CCc2c(c3cc(OC)c(OC)cc3c3cc(OC)ccc23)C1
6.3

Consider the compound CCCN1CCc2c(c3cc(OC)c(OC)cc3c3cc(OC)c(OC)cc23)C1 . State its measured half-life.
2.4

Give the reported value of half-life for this record: CCN1Cc2c(c3ccc(OC)cc3c3cc(OC)c(OC)cc23)C(O)C1 (stereo not drawn)
11.8

====

System: MCF7
Experiment: Growth inhibition of human MCF7 cells
Type: functional
Mark Yes only when GI50 stays strictly below 1000 nM. Values equal to the cut-off are No.

GI50 under 1000 nM? Item: CCCN1Cc2c(c3ccc(OC)cc3c3cc(OC)c(OC)cc23)C(O)C1 (configuration not stated)
Yes

API: query returns whether the compound falls strictly under 1000 nM in GI50. Query: CCCCCN1CCc2c(c3cc(OC)c(OC)cc3c3cc(OC)c(OC)cc23)C1
No

State whether 1000 nM exceeds GI50 recorded for COc1cc2c3c(c4cc(OC)c(OC)cc4c2cc1OC)CN1CCCCCC1C3 (configuration not stated) .
Yes

GI50 under 1000 nM? Item: COc1cc2c3c(c4cc(OC)c(OC)cc4c2cc1OC)CN(CCCOC1CCCCO1)CC3 (configuration not stated)
No

Take the compound CCC(C)N1CCc2c(c3cc(OC)c(OC)cc3c3cc(OC)c(OC)cc23)C1 (configuration not stated) and say whether its GI50 is less than 1000 nM.
Yes

# strict comparison: is reported GI50 < 1000 nM? input = COc1cc2c3c(c4cc(OC)c(OC)cc4c2cc1OC)CN(CC1OCCO1)CC3
No

is_below(GI50, 1000 nM) for COc1ccc(C2=C(c3ccc(OC)c(OC)c3)CN3CCC[C@H]3C2)cc1OC ?
No

A record lists COc1cc2c3c(c4cc(OC)c(OC)c(OC)c4c2cc1OC)CCN(C(C)C)C3 . Is its GI50 below 1000 nM?
Yes

is_below(GI50, 1000 nM) for CCN1Cc2c(c3cc(OC)c(OC)cc3c3cc(OC)c(OC)cc23)C(O)C1 (configuration not stated) ?
Yes

Please state whether GI50 is below 1000 nM for CCN1Cc2c(c3ccc(OC)cc3c3cc(OC)c(OC)cc23)C(O)C1 (configuration not stated)
Yes

Please determine if CC(=O)O[C@H]1C(=O)[C@@]2(C)[C@H]([C@H](OC(=O)c3ccccc3)[C@]3(O)C[C@H](OC(=O)[C@H](O)[C@@H](NC(=O)c4ccccc4)c4ccccc4)C(C)=C1C3(C)C)[C@]1(OC(C)=O)CO[C@@H]1C[C@@H]2O is below 1000 nM in terms of GI50.
Yes

Consider COc1cc2c3c(c4cc(OC)c(OC)cc4c2cc1OC)C(O)CN(C(C)C)C3 (configuration not stated) . Does its GI50 lie strictly below 1000 nM?
No
